System: KB-3-1
Assay summary: Cytotoxic Profiling of Annotated Libraries Using Quantitative High-Throughput Screening (AID 1296008); note: % is set by controls: 0 for no effect and ±100 for the full control effect; nearly all actives have a fitted effect of over 60% in size
Experimental context: Five cell lines viability, CellTiter-Glo ATP luminescence, 48-72 h; hits give low values
Inconclusive results are not listed. Where a SMILES comes first, the peptide text is derived from it. Bridges are numbered along the chain shown (N, C = ends). [ ]: non-standard residue; d: D form. NMeY = CN[CH](Cc1ccc(O)cc1)C(=O)O
Catalogue of max response readings, one per entry.
Expressed in %, but write only the number.

Illustrative cases are given below, each with its answer.
{"columns": ["Compound", "System name", "Data value"],
 "data": [
  ["COc1ccc(CCO[C@@H]2CCCC[C@H]2N2CC[C@@H](O)C2)cc1OC", "KB-3-1", 4.12],
  ["Cn1nnc(-c2ccc(-c3ccc(N4C[C@H](CO)OC4=O)cc3F)cn2)n1", "KB-3-1", -14],
  ["C/C=C/C=C/[C@@H]1O[C@](O)([C@H](CC)C(=O)NC/C=C/C=C(\\C)[C@@H](OC)[C@@H](C)C2OC(/C=C/C=C/C=C(\\C)C(=O)c3c(O)cc[nH]c3=O)[C@H](O)[C@@H]2O)[C@H](O)[C@H](O)C1(C)C (stereo partly drawn)", "KB-3-1", 2.01],
  ["C[C@@H]1CCC2C(C)(C)[C@H](O)CC[C@]2(C)[C@@]12Cc1c(O)cc3c(c1O2)CNC3=O (stereo partly drawn)", "KB-3-1", 9.73],
  ["COC(=O)c1ccnc(-c2cc(C(=O)NCCc3ccccc3)ccn2)c1", "KB-3-1", 1.93],
  ["C=C(C(=O)O)[C@@H]1CC[C@@]2(C)CC[C@H](O)[C@@]2(C(C)=O)C1", "KB-3-1", 2.3],
  ["COc1ccc(C2=N[C@@H](c3ccc(Cl)cc3)[C@@H](c3ccc(Cl)cc3)N2C(=O)N2CCNC(=O)C2)c(OC(C)C)c1", "KB-3-1", 6.36],
  ["CC(=O)C1=C(C)N(c2cccc(C(F)(F)F)c2)C(=O)N[C@H]1c1ccc(C#N)nc1", "KB-3-1", 1.77],
  ["CN=C(N)NCCCCC/C=C(/C)CC(C)C1OC(=O)C(C)C(O)/C=C/C(C)C(O)CC(O)C(C)C(O)CCC(C)C(O)CC2(O)OC(CC(OC(=O)CC(=O)O)CC(O)CC(O)C(C)C(O)/C(C)=C/CCC1C)CC(O)C2O (stereo not drawn)", "KB-3-1", 1.79],
  ["CCOc1ccc2nc(SCCN3CCOCC3)[nH]c2c1", "KB-3-1", -9.7]
]}

Please look at C[C@@H]1O[C@@H](O[C@H]2[C@H](O)[C@@H](C(=O)O)O[C@@H](O[C@H]3CC[C@@]4(C)C(CC[C@]5(C)C4CC=C4C6CC(C)(C)CC[C@]6(C(=O)O)CC[C@]45C)C3(C)C)[C@@H]2O[C@@H]2OC[C@@H](O)[C@H](O)[C@H]2O)[C@H](O)[C@H](O)[C@H]1O (stereo partly drawn) and tell me its recorded max response on KB-3-1. 9.7

Please look at C/C=C/C=C/C(O)=C1\C(=O)[C@]2(C)C3C(C(=O)CC/C=C/C)=C(O)C4(C)C1[C@]1(C)O[C@@]4(O)[C@@]3(C)O[C@@]12O and tell me its recorded max response on KB-3-1. 8.54

Please look at CN(CCc1ccc(Nc2ncc(-c3cccnc3)s2)cc1)Cc1ccccc1 and tell me its recorded max response on KB-3-1. -12.1

Please look at N#C[C@@H]1C[C@H](F)CN1C(=O)CNC1[C@H]2CN(C(=O)c3ccc(F)cc3)C[C@@H]12 (stereo partly drawn) and tell me its recorded max response on KB-3-1. 1.86

Please look at O=C(O)c1cccc(S(=O)(=O)N2CCc3ccccc3C2)c1 and tell me its recorded max response on KB-3-1. 0.457

Please look at CCCCOC(=O)NC(=O)C1c2ccccc2Oc2ccccc21 and tell me its recorded max response on KB-3-1. 2.73

Please look at C=CC(C)(C)c1[nH]c2ccccc2c1C[C@@H]1NC(=O)[C@H](Cc2c[nH]c3ccccc23)NC1=O and tell me its recorded max response on KB-3-1. 3.66

Please look at CCC(C)C1NC(=O)C2CCCN2C(=O)C(NC(C)=O)C(C)OC(=O)C(Cc2ccc(OC)cc2)N(C)C(=O)C2CCCN2C(=O)C(C(C)C)NC1=O (stereo not drawn) (Ac-TPIVP[NMeY](Me); ester 1-C; configuration not given here) and tell me its recorded max response on KB-3-1. -2.69
